test: melting temperature; fluorescence melt of hairpins on a sequencing array, two-state fit, raised by 9.35 °C to match UV melts; settings: sodium 0.088 M
Reported values of Tm for individual entries
Answer in °C, number only, no unit symbol.

seq: GGACTCGAAAGAGGCTCC ((((((....)))..)))
Tm (°C): 48.9
--
seq: GGGATTCCGAAAGGACCC (((..(((....))))))
Tm (°C): 40.3
--
seq: GATCTAGGTTTAGATC ((((((....))))))
Tm (°C): 41.1

Now let's try a different one.
Exercise: Fill in: Tm of GCACCTGGAAACAGGTAC (.(((((....))))).) is ___
Solution: 40.9

---

experiment: melting temperature; fluorescence melt of hairpins on a sequencing array, two-state fit, raised by 9.35 °C to match UV melts; conditions: sodium 0.088 M
observable: Tm (°C)
Answer in °C, number only, no unit symbol.

seq: GATCAGGACACTGATC ((((((....))))))
result-unit: °C
number: 56.7
--
seq: GTGCCCGGAAACGGGTGC (..((((....))))..)
result-unit: °C
number: 53.9
--
seq: GTTATCCGAAAGGACAAC (((.(((....))).)))
result-unit: °C
number: 39.6
--
seq: GTTGCCTCGAAAGAGAAC (((..(((....))))))
result-unit: °C
number: 25.4
--
seq: GATCTATTCATAGATC ((((((....))))))
result-unit: °C
number: 49.9

Exercise: Fill in: Tm of GCGTCAGCGAAAGCTCGC (((..(((....)))))) is ___
Solution: 47.2

Exercise: Fill in: Tm of GATCGTTGGACGATC ((((((...)))))) is ___
Solution: 54.8

Exercise: Fill in: Tm of GATCCTTGGTAGGATC ((((((....)))))) is ___
Solution: 51.1

Exercise: Fill in: Tm of CGGAAACGGAAACGTCCG (((..(((....)))))) is ___
Solution: 41.1

Exercise: Fill in: Tm of GCGATCGAAAGATATCGC ((((((....)))..))) is ___
Solution: 47

---

Reported values of Tm for individual entries
assay: melting temperature; fluorescence melt of hairpins on a sequencing array, two-state fit, raised by 9.35 °C to match UV melts; conditions: sodium 0.088 M
Answer in °C, number only, no unit symbol.

seq: GATCGTGTATACGATC ((((((....))))))
result-unit: °C
Tm: 62.1
//
seq: GTGAACGAAAGTTTACAC ((((((....)))..)))
result-unit: °C
Tm: 39.6

Now let's try a different one.
Exercise: Fill in: Tm of GTGGTATCGAAAGATCAC (((..(((....)))))) is ___
Solution: 33.3

---

test: folding enthalpy; higher = less favourable; fluorescence melt of hairpins on a sequencing array, two-state fit; settings: sodium 0.088 M
Reported values of folding enthalpy for individual entries
Answer in kcal/mol, number only, no unit symbol.

Exercise: Fill in: folding enthalpy of GTCAGCGAAAGCTTGAC ((((((....))).))) is ___
Solution: -25.6

Exercise: Fill in: folding enthalpy of GCCTCGCGAAAGCAGGGC (((..((....))..))) is ___
Solution: -20.6

Exercise: Fill in: folding enthalpy of GCATGAGGAAACTCATAC (.(((((....))))).) is ___
Solution: -17.2

Exercise: Fill in: folding enthalpy of GAGCCACGAAAGTGACTC (((.(((....))).))) is ___
Solution: -45.2

---

assay: folding enthalpy; higher = less favourable; fluorescence melt of hairpins on a sequencing array, two-state fit; details: sodium 0.088 M
observable: folding enthalpy (kcal/mol)
Answer in kcal/mol, number only, no unit symbol.

Example cases with answers are listed next.
seq: GATCATCGATATGATC ((((((....))))))
observable: folding enthalpy
number: -29.4
//
seq: GTGCCTGGAAACAGGTGC (..((((....))))..)
observable: folding enthalpy
number: -23.2
//
seq: GATCTAGTCGTAGATC ((((((....))))))
observable: folding enthalpy
number: -27.9
//
seq: GGCGTTGGAAACAACACC ((.((((....)))).))
observable: folding enthalpy
number: -33.6

Now let's try a different one.
Exercise: Fill in: folding enthalpy of GGGCTTCGAAAGAAACCC (((.(((....))).))) is ___
Solution: -30.2

---

assay: folding enthalpy; higher = less favourable; fluorescence melt of hairpins on a sequencing array, two-state fit; conditions: sodium 0.088 M
Reported values of folding enthalpy for individual entries
Answer in kJ/mol, number only, no unit symbol.

seq: GCGTTGACACGC ((((....))))
number: -88.9
//
seq: GATGCCGAAAGGCTAATC ((((((....)))..)))
number: -40.3
//
seq: GGCTTTACGAAAGTAGCC (((..(((....))))))
number: -116
//
seq: GATCAAGGGATTGATC ((((((....))))))
number: -113
//
seq: GGTAGTGGAAACACCACC (((.(((....))).)))
number: -86.8

Exercise: Fill in: folding enthalpy of GGCTGAGGAAACTCAACC ((.((((....)))).)) is ___
Solution: -136

Exercise: Fill in: folding enthalpy of GATCTTATCAAGATC ((((((...)))))) is ___
Solution: -124

Exercise: Fill in: folding enthalpy of GATCATACATATGATC ((((((....)))))) is ___
Solution: -170

Exercise: Fill in: folding enthalpy of GTGCACGAAAGTGCGCAC ((((((....)))..))) is ___
Solution: -44.1

Exercise: Fill in: folding enthalpy of GATCCAAAGTGGATC ((((((...)))))) is ___
Solution: -129

Exercise: Fill in: folding enthalpy of GCGTTAGTACGC ((((....)))) is ___
Solution: -82.8

---

experiment: melting temperature; fluorescence melt of hairpins on a sequencing array, two-state fit, raised by 9.35 °C to match UV melts; conditions: sodium 0.088 M
observable: Tm (°C)
Answer in °C, number only, no unit symbol.

Example cases with answers are listed next.
seq: GATCGTTAATACGATC ((((((....))))))
Tm / °C: 54.6
//
seq: GAACAACGAAAGTTATTC (((.(((....))).)))
Tm / °C: 30.1
//
seq: GACAGCGAAAGCTAGTC ((((((....))).)))
Tm / °C: 51.2
//
seq: GCGAGTACGAAAGTACGC (((..(((....))))))
Tm / °C: 53.1
//
seq: GCGTACCCGAAAGGGCGC (((..(((....))))))
Tm / °C: 56.4

Exercise: Fill in: Tm of GGATGTGGAAACACACCC ((.((((....)))).)) is ___
Solution: 44.3

Exercise: Fill in: Tm of GGGAGTTCGAAAGAACCC (((..(((....)))))) is ___
Solution: 47.9

Exercise: Fill in: Tm of GCGACAGGAAACTATCGC ((((.((....)).)))) is ___
Solution: 43.7

Exercise: Fill in: Tm of GTGCCCTCGAAAGAGCAC (((..(((....)))))) is ___
Solution: 43

Exercise: Fill in: Tm of GTTTGCGAAAGCATAAC ((((((....))).))) is ___
Solution: 43

Exercise: Fill in: Tm of GCCATGGGAAACCATGAC (.(((((....))))).) is ___
Solution: 41

Exercise: Fill in: Tm of GCATATCGAAAGATTTGC (((.(((....))).))) is ___
Solution: 46.8

Exercise: Fill in: Tm of GATCCATCTTGGATC ((((((...)))))) is ___
Solution: 51.6

Exercise: Fill in: Tm of GTAGCCGGAAACGACTAC ((((.((....)).)))) is ___
Solution: 46.6

Exercise: Fill in: Tm of GATCTGTCTTCAGATC ((((((....)))))) is ___
Solution: 51.4

Exercise: Fill in: Tm of GTGGACGAAAGTCTGCAC ((((((....)))..))) is ___
Solution: 40.6

Exercise: Fill in: Tm of CGCTACGGAAACGTGCG (((.(((....)))))) is ___
Solution: 53.3

Exercise: Fill in: Tm of GATCGGAGCACCGATC ((((((....)))))) is ___
Solution: 57.4

Exercise: Fill in: Tm of GATCTTAATAAAGATC ((((((....)))))) is ___
Solution: 40.9

Exercise: Fill in: Tm of GCCGAGCGAAAGCAGGGC (((..((....))..))) is ___
Solution: 57.2

Exercise: Fill in: Tm of GCCATGCGAAAGCAAGGC (((.(((....))).))) is ___
Solution: 60.5

Exercise: Fill in: Tm of GATCGGCTGCCCGATC ((((((....)))))) is ___
Solution: 56.2
